The entries below come with measured pEC50 values attached.
# Measured on: IGF-1 receptor (Homo sapiens, UniProt P08069)
# Method: IGF-1 receptor binding assay (competition, scintillation proximity)
# Design: expressed in transfected cells; plasma membrane fragments
# Measurement setup: Table 15; read-out: Receptor Binding IGR-1R EC50
Please express pEC50 as -log10 of the molar concentration.

Retrieve pEC50 measured for DP22: CTP-E5R-B chain-CTP(K)-A Chain (SEQ ID NO: 91) (protein, single chain insulin analog) MGSSSSKAPPPSLPSPSRLPGPSDTPILPQEEEEERGPEHLCGAHLVDALYLVCGDRGFYSSSSRAPPPSLPSPSRLPGPSDTPILPQKGIVDECCHRSCDLRRLENYCN and print it.
6.36

Consider the record given below.
# return recorded pEC50 for input DP20LysC: DP20 cleaved at the lysine of CTP to produce a two chain insulin (protein) chain 1: GPEHLCGAHLVDALYLVCGDRGFYSSSSRAPPPSLPSPSRLPGPSDTPILPQK chain 2: GIVDECCHRSCDLRRLENYCN
7.30
